TARGET OR TEST SYSTEM: Proteasome Macropain subunit MB1 (Homo sapiens)
Sequence (P28074 whole entry): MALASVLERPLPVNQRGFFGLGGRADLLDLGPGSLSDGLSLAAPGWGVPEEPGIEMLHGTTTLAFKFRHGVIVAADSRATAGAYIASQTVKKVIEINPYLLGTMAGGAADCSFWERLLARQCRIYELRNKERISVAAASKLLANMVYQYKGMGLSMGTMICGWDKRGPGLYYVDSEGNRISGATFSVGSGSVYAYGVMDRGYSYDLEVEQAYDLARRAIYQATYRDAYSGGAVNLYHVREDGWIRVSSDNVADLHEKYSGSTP
TEST DETAILS: Inhibition of chymotrypsin like activity of human erythrocyte-derived 20S proteasome preincubated for 10 mins using Suc-LLVY-AMC as substrate after 60 mins by fluorescence assay
CONDITION NOTES: read-out: IC50
Please respond with reported IC50 for every item in the list.
Note: state the figure and append the unit.

These recorded examples may help you get a feel for the data.
CC(C)C[C@H](NC(=O)[C@H](Cc1ccccc1)NC(=O)C1CCCC1)B(O)O: 4.82 nM
CC(C)C[C@H](NC(=O)[C@H](Cc1ccccc1)NC(=O)c1cccc2c1CCCC2)B(O)O: 1.6 nM
COCC(=O)N[C@@H](Cc1ccccc1)C(=O)N[C@@H](CC(C)C)B(O)O: 6.31 nM
COCCC(=O)N[C@@H](Cc1ccccc1)C(=O)N[C@@H](CC(C)C)B(O)O: 8.47 nM

Report IC50 for each item below.
1. CC(C)C[C@@H](NC(=O)CC(NC(=O)[C@H]1CCCc2ccccc21)c1cccc(F)c1)B(O)O (stereo partly drawn)
2. CC(C)C[C@H](NC(=O)[C@H](Cc1ccccc1)NC(=O)[C@H]1CCCc2ccccc21)B(O)O
3. CCCC(=O)N[C@@H](Cc1ccccc1)C(=O)N[C@@H](CC(C)C)B(O)O
4. CC(C)C[C@H](NC(=O)[C@H](Cc1ccccc1)NC(=O)CC(C)(C)C)B(O)O

**A:**
1.02 nM
1.2 nM
6.94 nM
4.69 nM
